# Test system: Runx2
# test.summary: Runx2 activity, 6xOSE2-Luc luciferase reporter in transfected C2C12 cells
# Type: cell-based, Mouse
# assay.context: Mus musculus, 5.0 μM, 24 hrs, read-out: luciferase activity relative to control set as 1
Listed here: items and their measured fold induction at 5 µM.
Just the number, please.

Past entries and their recorded results:
compound="Nc1cccc(-c2cccc3c2CN(Cc2ccc(C(=O)Nc4ccccc4N)cc2)C3=O)c1 [Example 18]" reported_measurement=16.2
compound="Nc1ccccc1NC(=O)c1ccc(CN2Cc3cc(-c4cncnc4)ccc3C2=O)cc1 [Example 58]" reported_measurement=17.1
compound="Cc1cc(C)cc(-c2cccc3c2CN(Cc2ccc(C(=O)Nc4ccccc4N)cc2)C3=O)c1 [Example 12]" reported_measurement=9
compound="Nc1ccccc1NC(=O)CCCCCN1Cc2c(Br)cccc2C1=O [Example 36]" reported_measurement=3
compound="Nc1ccccc1NC(=O)c1ccc(CN2Cc3cc(Br)ccc3C2=O)cc1 [Example 56]" reported_measurement=1.1
compound="Cc1c(C(=O)NCc2ccc(C(=O)Nc3ccccc3N)cc2)cccc1-c1cncnc1 [Example 70]" reported_measurement=20.6
compound="COc1cc(C(=O)NCc2ccc(C(=O)Nc3ccccc3N)cc2)c(C)c(-c2cncnc2)c1OC [Example 75]" reported_measurement=4.7
compound="Nc1ccccc1NC(=O)c1ccc(CN2Cc3c(cccc3-c3cccnc3)C2=O)cc1 [Example 14]" reported_measurement=15.7

Missing value: fold induction at 5 µM, Runx2, entry Cc1cc(C(=O)NCCCCCC(=O)Nc2ccccc2N)ccc1-c1ccncc1 [Example 89] . Fill in?
17.9

Moving on to O=C(CCCCCN1Cc2c(cccc2-c2cc(F)cc(F)c2)C1=O)NO [Example 42]
10.8

---

# Test system: Runx2
# test.summary: Runx2 activity, 6xOSE2-Luc luciferase reporter in transfected C2C12 cells
# Type: cell-based, Mouse
# assay.context: Mus musculus, 10 μM, 24 hrs, read-out: luciferase activity relative to control set as 1
Rule: fold induction at 10 µM below 10 gives fulfilled, anything at or above gives not fulfilled.

molecule="COc1cc(C(=O)NCc2ccc(C(=O)Nc3ccccc3N)cc2)c(C)c(-c2ccc(C(F)(F)F)cc2)c1OC [Example 78]" discrete_label="not fulfilled"
molecule="Cc1cc(C)cc(-c2ccc3c(c2)CN(CCCCCC(=O)NO)C3=O)c1 [Example 52]" discrete_label="not fulfilled"
molecule="Nc1ccccc1NC(=O)c1ccc(CN2Cc3c(cccc3-c3ccc(F)cc3)C2=O)cc1 [Example 30]" discrete_label="not fulfilled"

Report whether reported fold induction at 10 µM is lower than 10 (strictly) for Cc1c(Br)cccc1C(=O)NCc1ccc(C(=O)Nc2ccccc2N)cc1 [Example 68]
not fulfilled

Moving on to Nc1ccccc1NC(=O)c1ccc(CN2Cc3cc(-c4cc(F)cc(F)c4)ccc3C2=O)cc1 [Example 60]
fulfilled

Moving on to Cc1cc(C)cc(-c2cccc3c2CN(CCCCCC(=O)NO)C3=O)c1 [Example 41]
not fulfilled

Moving on to O=C(CCCCCN1Cc2cc(-c3cc(F)cc(F)c3)ccc2C1=O)NO [Example 53]
fulfilled

Moving on to N#Cc1ccc(-c2ccc3c(c2)CN(Cc2ccc(C(=O)Nc4ccccc4N)cc2)C3=O)cc1 [Example 65]
not fulfilled

---

# Test system: Runx2
# test.summary: Runx2 activity, 6xOSE2-Luc luciferase reporter in transfected C2C12 cells
# Assay type: cell-based, Mouse
# assay.context: Mus musculus, 10 μM, 24 hrs, read-out: luciferase activity relative to control set as 1
Rule: fold induction at 10 µM below 7 gives 1, anything at or above gives -1.

molecule="Nc1ccccc1NC(=O)c1ccc(CN2Cc3cc(-c4ccc(C(F)(F)F)cc4)ccc3C2=O)cc1 [Example 59]" target_or_system=Runx2 discrete_label=1
molecule="Nc1ccccc1NC(=O)c1ccc(CN2Cc3c(cccc3-c3cc(F)cc(F)c3)C2=O)cc1 [Example 17]" target_or_system=Runx2 discrete_label=-1
molecule="Cc1cc(C(=O)NCCCCCC(=O)Nc2ccccc2N)ccc1-c1ccncc1 [Example 89]" target_or_system=Runx2 discrete_label=-1
molecule="COc1cc(C(=O)NCc2ccc(C(=O)Nc3ccccc3N)cc2)c(C)c(-c2cncnc2)c1OC [Example 75]" target_or_system=Runx2 discrete_label=-1
molecule="Cc1c(C(=O)NCc2ccc(C(=O)Nc3ccccc3N)cc2)cccc1-c1cccnc1 [Example 71]" target_or_system=Runx2 discrete_label=-1
molecule="Nc1ccccc1NC(=O)c1ccc(CN2Cc3c(Br)cccc3C2=O)cc1 [Example 9]" target_or_system=Runx2 discrete_label=-1
molecule="Cc1cc(C)cc(-c2cccc3c2CN(Cc2ccc(C(=O)Nc4ccccc4N)cc2)C3=O)c1 [Example 12]" target_or_system=Runx2 discrete_label=-1
molecule="Nc1ccccc1NC(=O)c1ccc(CN2Cc3cc(Br)ccc3C2=O)cc1 [Example 56]" target_or_system=Runx2 discrete_label=1

Report whether reported fold induction at 10 µM is lower than 7 (strictly) for COc1ccc(-c2cccc3c2CN(CCCCCC(=O)NO)C3=O)cc1OC [Example 40]
1

Moving on to COc1cc2c(c(-c3cc(F)cc(F)c3)c1OC)CN(CCCCCC(=O)Nc1ccccc1N)C2=O [Example 34]
-1

Moving on to Cc1c(C(=O)NCCCCCC(=O)NO)cccc1-c1ccccc1 [Example 92]
-1

Moving on to O=C(CCCCCN1Cc2c(cccc2-c2cccnc2)C1=O)NO [Example 43]
1

Moving on to Nc1ccccc1NC(=O)c1ccc(CN2Cc3cc(-c4cncnc4)ccc3C2=O)cc1 [Example 58]
-1

Moving on to COc1ccc(-c2cccc3c2CN(CCCCCC(=O)NO)C3=O)c(OC)c1 [Example 39]
1

---

# Tested on: Runx2
# test.summary: Runx2 activity, 6xOSE2-Luc luciferase reporter in transfected C2C12 cells
# Format: cell-based, Mouse
# assay.context: Mus musculus, 10 μM, 24 hrs, read-out: luciferase activity relative to control set as 1
Think of 10 as a floor: if fold induction at 10 µM stands on it or above, it is fulfilled; beneath it, not fulfilled.

Use the examples below as a reference point.
mol_smiles=Nc1ccccc1NC(=O)c1ccc(CN2Cc3cc(-c4ccccc4)ccc3C2=O)cc1 discrete_label=fulfilled
mol_smiles=Nc1ccccc1NC(=O)c1ccc(CN2Cc3c(cccc3-c3ccc4ccccc4c3)C2=O)cc1 discrete_label=fulfilled
mol_smiles=COc1cc2c(c(-c3ccccc3)c1OC)CN(Cc1ccc(C(=O)Nc3ccccc3N)cc1)C2=O discrete_label=fulfilled
mol_smiles=Cc1c(C(=O)NCCCCCC(=O)Nc2ccccc2N)cccc1-c1ccccc1 discrete_label="not fulfilled"
mol_smiles=Cc1cc(C(=O)NCCCCCC(=O)Nc2ccccc2N)ccc1Br discrete_label=fulfilled
mol_smiles=NC(=O)c1cccc(-c2cccc3c2CN(Cc2ccc(C(=O)Nc4ccccc4N)cc2)C3=O)c1 discrete_label="not fulfilled"
mol_smiles=COc1cc2c(c(-c3cc(C)cc(C)c3)c1OC)CN(CCCCCC(=O)Nc1ccccc1N)C2=O discrete_label=fulfilled

Now examine the next entry.
Hi team, for "COc1cc(C(=O)NCc2ccc(C(=O)Nc3ccccc3N)cc2)c(C)c(Br)c1OC" , is the recorded fold induction at 10 µM at or above 10?
fulfilled

---

Listed here: items and their measured fold induction at 10 µM.
# Test system: Runx2
# test.summary: Runx2 activity, 6xOSE2-Luc luciferase reporter in transfected C2C12 cells
# Type: cell-based, Mouse
# assay.context: Mus musculus, 10 μM, 24 hrs, read-out: luciferase activity relative to control set as 1
# Source text: Mouse premyoblast cell (C2C12 cell) was transfected using receptor vector 6xOSE2-Luc in order to investigate the activity of the amide compound of the present invention on Runx2. […]
Just the number, please.

Past entries and their recorded results:
mol_smiles=COc1ccc(-c2cccc3c2CN(Cc2ccc(C(=O)Nc4ccccc4N)cc2)C3=O)cc1 target_or_system=Runx2 endpoint="fold induction at 10 µM" reported_measurement=12
mol_smiles=COc1cc2c(c(-c3ccccc3)c1OC)CN(CCCCCC(=O)Nc1ccccc1N)C2=O target_or_system=Runx2 endpoint="fold induction at 10 µM" reported_measurement=26.2

Value lookup for fold induction at 10 µM; key = "Nc1ccccc1NC(=O)c1ccc(CN2Cc3c(cccc3-c3cccnc3)C2=O)cc1"
15.4

Moving on to "Cc1c(C(=O)NCc2ccc(C(=O)Nc3ccccc3N)cc2)cccc1-c1ccccc1"
29.2

Moving on to "COc1cc2c(c(-c3ccc(C(F)(F)F)cc3)c1OC)CN(Cc1ccc(C(=O)Nc3ccccc3N)cc1)C2=O"
17.2

Moving on to "COc1ccc(-c2cccc3c2CN(Cc2ccc(C(=O)Nc4ccccc4N)cc2)C3=O)cc1OC"
8.5

---

# Tested on: Runx2
# test.summary: Runx2 activity, 6xOSE2-Luc luciferase reporter in transfected C2C12 cells
# Assay type: cell-based, Mouse
# assay.context: Mus musculus, 5.0 μM, 24 hrs, read-out: luciferase activity relative to control set as 1
Rule: fold induction at 5 µM below 10 gives t, anything at or above gives f.

mol_smiles=Cc1c(C(=O)NCCCCCC(=O)NO)cccc1-c1ccccc1 discrete_label=t
mol_smiles=Nc1ccccc1NC(=O)c1ccc(CN2Cc3c(cccc3-c3ccc4ccccc4c3)C2=O)cc1 discrete_label=t

Report whether reported fold induction at 5 µM is lower than 10 (strictly) for "CC(C)(C)c1ccc(-c2cccc3c2CN(Cc2ccc(C(=O)Nc4ccccc4N)cc2)C3=O)cc1"
t

Moving on to "COc1cc2c(c(Br)c1OC)CN(Cc1ccc(C(=O)Nc3ccccc3N)cc1)C2=O"
f

Moving on to "COc1cc2c(c(-c3cccnc3)c1OC)CN(Cc1ccc(C(=O)Nc3cc(-c4cccs4)ccc3N)cc1)C2=O"
t

Moving on to "N#Cc1ccc(-c2cccc3c2CN(Cc2ccc(C(=O)Nc4ccccc4N)cc2)C3=O)cc1"
f

Moving on to "Nc1ccccc1NC(=O)c1ccc(CN2Cc3c(Br)cccc3C2=O)cc1"
f

Values from patent US8716326B2
